biological target: Cacnb1 (rat); assay: reporter assay of Huesken 2005; conditions: siRNA; note: test concentration or dose not given here
Oligonucleotides are given in HELM: sugar(base)linkage, 5' to 3'; d 2'-deoxyribose, r ribose, m 2'-O-methylribose, p phosphate. ss, as = sense and antisense strand
Task for the reader: assign each of the following substances its reported normalised inhibition (eCFP-eYFP dual reporter).
Give bare numbers, in %.

RNA1{r(C)p.r(G)p.r(U)p.r(C)p.r(A)p.r(G)p.r(A)p.r(C)p.r(U)p.r(C)p.r(C)p.r(G)p.r(A)p.r(C)p.r(G)p.r(U)p.r(G)p.r(U)p.r(C)p.d(T)p.d(T)}|RNA2{r(G)p.r(A)p.r(C)p.r(A)p.r(C)p.r(G)p.r(U)p.r(C)p.r(G)p.r(G)p.r(A)p.r(G)p.r(U)p.r(C)p.r(U)p.r(G)p.r(A)p.r(C)p.r(G)p.d(G)p.d(C)}$$$RNA1{StrandType:ss}|RNA2{StrandType:as}$: 77
RNA1{r(U)p.r(G)p.r(G)p.r(A)p.r(C)p.r(A)p.r(G)p.r(C)p.r(C)p.r(U)p.r(U)p.r(C)p.r(G)p.r(C)p.r(C)p.r(U)p.r(G)p.r(C)p.r(U)p.d(T)p.d(T)}|RNA2{r(A)p.r(G)p.r(C)p.r(A)p.r(G)p.r(G)p.r(C)p.r(G)p.r(A)p.r(A)p.r(G)p.r(G)p.r(C)p.r(U)p.r(G)p.r(U)p.r(C)p.r(C)p.r(A)p.d(G)p.d(T)}$$$RNA1{StrandType:ss}|RNA2{StrandType:as}$: 39.5

Fill in the blank: the reported normalised inhibition (eCFP-eYFP dual reporter) of `RNA1{r(G)p.r(U)p.r(G)p.r(C)p.r(C)p.r(A)p.r(A)p.r(A)p.r(C)p.r(A)p.r(G)p.r(A)p.r(A)p.r(G)p.r(C)p.r(A)p.r(G)p.r(A)p.r(A)p.d(T)p.d(T)}|RNA2{r(U)p.r(U)p.r(C)p.r(U)p.r(G)p.r(C)p.r(U)p.r(U)p.r(C)p.r(U)p.r(G)p.r(U)p.r(U)p.r(U)p.r(G)p.r(G)p.r(C)p.r(A)p.r(C)p.d(T)p.d(G)}$$$RNA1{StrandType:ss}|RNA2{StrandType:as}$` is ____.
82.1

// provenance: the OligoGym collection
